# Tested on: H460
# Measurement protocol: Proliferation panel assay, H460
# Format: cell-based
# Protocol conditions: Homo sapiens, NCI-H460, 120 h; NSCLC, H460, 5 days; read-out: Cellular Proliferation EC50
Readout name: EC50

Input: Please indicate EC50 recorded for Cc1[nH]c(-c2cc(NS(C)(=O)=O)ccc2Oc2ccccc2)c2c1C(=O)CCC2 [Example 40]
Output: > 10 µM

====

# Target system: BRD4 (BDII_E352-M457) (Homo sapiens (Human), UniProt O60885)
# Measurement protocol: TR-FRET bromodomain binding assay, BRD4 second bromodomain
# Protocol conditions: His-tagged BD2, 30 nM Alexa647 probe
Give Ki for every item shown.
Answers are plain numbers, in nM.

Here are 4 compounds together with their reported answers.
>  <Compound>
Cc1[nH]c(-c2ccccc2Oc2ccccc2)c2c1C(=O)CC(C)C2 (centres unmarked)

>  <Ki (nM)>
382

$$$$
>  <Compound>
Cc1[nH]c(-c2cccc(NS(C)(=O)=O)c2)c2c1C(=O)CC(C)(C)C2

>  <Ki (nM)>
409

$$$$
>  <Compound>
Cc1[nH]c(-c2ccccc2COc2cccc(C(F)(F)F)c2)c2c1C(=O)CCC2

>  <Ki (nM)>
8920

$$$$
>  <Compound>
Cc1[nH]c(-c2cc(NS(C)(=O)=O)ccc2Oc2ccccc2)c2c1C(=O)CC(C)C2 (centres unmarked)

>  <Ki (nM)>
68

$$$$

Input: Give recorded Ki. Cc1[nH]c(-c2ccc(Cl)cc2)c2c1C(=O)CCC2
Output: 22200

Data origin: patent US9776990B2
